For each entry below, report its TGI value.
tested on: RPMI-8226 leukemia; experiment: NCI tumour cell line growth inhibition, 48 h
Give bare numbers, in µM.

Here are 5 compounds. What values of TGI were reported for them?
1. O=C(/C=C/c1ccccc1)CCN1CCOCC1
2. CC1(C)C=Cc2c(cc(O)c3c(=O)c4cc(Cl)ccc4[nH]c23)O1
3. Cc1cc(S(=O)(=O)/N=C(/N)Nc2ccccc2O)c(SCc2ccccc2)cc1Cl
4. CCCCCCCCCCCCCCCCCC[n+]1ccc2c(C)c3c(c(C)c2c1)c1cc(O)ccc1n3CC
5. COc1cc2c(c(OC)c1OC)-c1ccc(SC)c(=O)cc1C(NC(=O)c1ccccc1)CC2 (stereo not given)

1: 7.54; 2: 6.27; 3: 52.3; 4: 17.5; 5: 52.5
